Values were extracted from paper PMC11249646.

Target: GST-CIB1 : F-scrambled peptide (Homo sapiens)
Construct: made in house; host or cells: BL-21 plus RIL cells (E. coli)
Sequence (Q99828 1-191): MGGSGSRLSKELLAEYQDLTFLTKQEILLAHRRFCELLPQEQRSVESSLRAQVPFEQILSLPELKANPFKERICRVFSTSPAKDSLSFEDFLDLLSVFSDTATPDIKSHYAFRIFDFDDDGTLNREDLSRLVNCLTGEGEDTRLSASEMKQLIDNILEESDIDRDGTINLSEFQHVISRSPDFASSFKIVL
Assay: FP scrambled-peptide counter screen, 1536-well format
Assay type: binding
Conditions: counterscreen
Decision: COUNTERSCREEN Efficacy (%) beneath -10% gives MET; COUNTERSCREEN Efficacy (%) meeting or exceeding -10% gives NOT MET.

Find out if reported COUNTERSCREEN Efficacy (%) for CC(O)c1ccc(-c2ccc3ncnc(N4CCOCC4)c3c2)o1.O=C(O)C(F)(F)F (centres unmarked) is less than -10%
MET

Find out if reported COUNTERSCREEN Efficacy (%) for `COc1cc2ccccc2cc1C(=O)N/C(S)=N/c1cc(C(=O)O)ccc1C.O=C(O)C(F)(F)F` is less than -10%
NOT MET

Find out if reported COUNTERSCREEN Efficacy (%) for `O=C1C=CC(=O)N1c1ccc(N2CCOCC2)cc1` is less than -10%
NOT MET

Find out if reported COUNTERSCREEN Efficacy (%) for `CCOc1ccc(CCNC(C)=O)cc1OCC.O=C(O)C(F)(F)F` is less than -10%
NOT MET

Find out if reported COUNTERSCREEN Efficacy (%) for `CC1(C)N=C(Nc2nc3ccccc3o2)NC2=C1C(=O)CCC2.O=C(O)C(F)(F)F` is less than -10%
MET

----------
Molecular target: CIB1 and αIIb interaction (CIB1-GST : F-αIIb peptide) (Homo sapiens)
Construct: made in house; host or cells: BL-21 plus RIL cells (E. coli)
Test: FP assay, 1536-well qHTS format (primary and confirmatory screen)
Assay type: binding
Conditions: confirmatory screen; read-out: IC50 [μM] (confirmatory screen)
Reported metric: IC50 (µM)
Value expressed in µM; do not type the unit.

O=C(O)c1cnn(-c2nc3cc(Cl)c(OC(F)(F)F)cc3[nH]2)c1; 44.7
CC[C@@H](CO)NC(=O)[C@@H]1C=C2c3cccc4c3c(cn4C)C[C@H]2N(C)C1.O=C(O)/C=C\C(=O)O; 44.7
Cc1cc2nc3ccc(N(C)C)cc3[s+]c2cc1N.Cl.[Cl-]; 22.4
Cc1ccc(CNc2ncnc3ccc(-c4ccc([C@@H](C)O)o4)cc23)o1; 28.2
CC(C)c1ccccc1Cc1cc(C(=O)Nc2ccc(S(=O)(=O)c3ccccc3C(C)(C)C)cc2)c(O)c(O)c1O; 14.1
O=C(O)C(F)(F)F.Oc1cccc2c(-c3nnn[nH]3)ccnc12; 25.1

Data point: `COc1ccc(C(=O)c2no[n+]([O-])c2C(=O)c2ccc(OC)cc2)cc1.O=C(O)C(F)(F)F` ; IC50 = 6.3

Data point: `Cn1c(NC2=NC3(CCCC3)C3=C(CCCC3=O)N2)nc2ccccc21.O=C(O)C(F)(F)F` ; IC50 = 89.1

----------
Entries and their IC50 values follow.
Molecular target: GST-CIB1 : F-scrambled peptide (Homo sapiens)
Construct: made in house; host or cells: BL-21 plus RIL cells (E. coli)
Assay: FP scrambled-peptide counter screen, 1536-well format
Type: binding
Settings: Table S3, counterscreen; read-out: IC50 [μM] (counterscreen)
Don't forget the unit after the number, please.

COc1cccc(CN(C)c2ccc(S(=O)(=O)Nc3nccs3)cc2)c1O.O=C(O)C(F)(F)F; 39.8 µM
CN(C(=O)c1cccs1)c1cccnc1.O=C(O)C(F)(F)F; 44.7 µM
COc1cccc(C(=O)c2no[n+]([O-])c2C(=O)c2cccc(OC)c2)c1; 17.8 µM
OC[C@H]1O[C@@H](Oc2ccc(O)c3cccc(O)c23)[C@H](O)[C@@H](O)[C@@H]1O; 15.8 µM
Cc1ccc2c(c1)/C(=C\C(=O)c1cccs1)C(=O)N2.O=C(O)C(F)(F)F; 11.2 µM

Data point: `O=C(N/N=C1\C(=O)N(CCc2ccccc2)c2ccccc21)c1cccnc1` ; IC50 = 44.7 µM

Data point: `CC(C)c1ccc(NC(=S)N/N=C2\C(=O)Nc3ccccc32)cc1.O=C(O)C(F)(F)F` ; IC50 = 12.6 µM

Data point: `O=C(NC1=CC(=O)[C@H]2O[C@H]2C1=O)c1ccccc1O` ; IC50 = 50.1 µM
